target or test system: recombinant human TFPI (tissue factor pathway inhibitor) (human, UniProt P10646 29-304)
assay summary: cell-based or functional assay
Collected % of Normalized, TF/FVIIa/FX complex assay, Ab 3.13 nM values appear next to each entry.
attribute measured: % of Normalized, TF/FVIIa/FX complex assay, Ab 3.13 nM (%)

binder: clone 1202 (antibody, V domains shown, scFv on yeast at selection; human IgG4/kappa IgG as purified; also called No. 1202 antibody) VH: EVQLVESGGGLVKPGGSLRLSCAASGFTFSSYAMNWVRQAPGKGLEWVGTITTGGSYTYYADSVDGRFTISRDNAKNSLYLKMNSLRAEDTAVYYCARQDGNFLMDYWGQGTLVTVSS VL: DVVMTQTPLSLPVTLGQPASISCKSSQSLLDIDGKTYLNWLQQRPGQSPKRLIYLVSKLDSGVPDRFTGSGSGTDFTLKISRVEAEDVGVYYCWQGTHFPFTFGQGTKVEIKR
value reported: 6

binder: clone 13 (antibody, V domains shown) VH: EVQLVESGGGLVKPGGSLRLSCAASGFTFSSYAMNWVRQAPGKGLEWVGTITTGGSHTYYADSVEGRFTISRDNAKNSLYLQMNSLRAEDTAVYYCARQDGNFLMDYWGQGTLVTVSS VL: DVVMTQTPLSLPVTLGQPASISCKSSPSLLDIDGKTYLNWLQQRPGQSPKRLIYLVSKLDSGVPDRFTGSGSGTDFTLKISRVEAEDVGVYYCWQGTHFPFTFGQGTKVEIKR
value reported: 6.4

binder: clone 1023 (antibody, V domains shown, scFv on yeast at selection; human IgG4/kappa IgG as purified) VH: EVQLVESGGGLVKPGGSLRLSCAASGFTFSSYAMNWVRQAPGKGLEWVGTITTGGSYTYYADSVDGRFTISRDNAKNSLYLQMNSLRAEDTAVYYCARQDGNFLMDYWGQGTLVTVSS VL: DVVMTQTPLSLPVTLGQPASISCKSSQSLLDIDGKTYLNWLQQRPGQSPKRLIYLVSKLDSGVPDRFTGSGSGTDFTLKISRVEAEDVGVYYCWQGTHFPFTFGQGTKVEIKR
value reported: 6

binder: clone 12 (antibody, V domains shown, human IgG4/kappa IgG as purified; also called No. 12 antibody) VH: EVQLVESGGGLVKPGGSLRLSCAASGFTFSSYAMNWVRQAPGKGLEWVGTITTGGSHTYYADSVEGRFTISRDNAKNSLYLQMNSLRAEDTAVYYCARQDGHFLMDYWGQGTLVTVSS VL: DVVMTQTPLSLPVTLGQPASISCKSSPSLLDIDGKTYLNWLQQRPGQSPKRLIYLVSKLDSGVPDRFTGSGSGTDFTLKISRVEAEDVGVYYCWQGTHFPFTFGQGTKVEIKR
value reported: 5.6
